# Protocol: Stability in chronic wound extracts (CWE), capillary zone electrophoresis
# Format: in vitro ADME, human
# Applied Conditions: human, chronic wound extracts (CWE); incubation with chronic wound extracts, 37°C, 8 h; CZE; read-out: Breakdown (degradation) in CWE in 8 h
Where no end group is shown, it is not given here.

Substance: SHREFPFYGDYGS [mad-Hst1]
metabolised at 8 h, 0.5 mg/ml: ~20%
--
Substance: cyclo(DNLPETGGDSHEKRHHGYRRKFHEKHHSHREFPFYGDYGSNYLY) [cHst1]
metabolised at 8 h, 0.5 mg/ml: ~20%
--
Substance: RKFHEKHHSHREFPFYGDYGSNYLYDN [Hst2]
metabolised at 8 h, 0.5 mg/ml: ~50%
--
Substance: DSHEKRHHGYRRKFHEKHHSHREFPFYGDYGSNYLYDN [Hst1]
metabolised at 8 h, 0.5 mg/ml: ~50%

* * *

# Protocol: Stability in CWE with protease inhibitor cocktail (PIC), capillary zone electrophoresis
# Format: in vitro ADME, human
# Applied Conditions: 1 mg/ml in PBS mixed 1:1 with CWE (1 mg/ml protein, pool of 5 donors) in PBS containing PIC (final 1:140 v/v), 37°C, 16 h; CZE, ratio to imidazole, 0 h = 100%; experiment 2 of 3
Where no end group is shown, it is not given here.
List of Percentage intact, CWE + PIC 16h values.

Substance: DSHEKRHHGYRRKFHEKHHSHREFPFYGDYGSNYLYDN [Hst1]
Result Unit: %
Percentage intact, CWE + PIC 16h: 65.5164
--
Substance: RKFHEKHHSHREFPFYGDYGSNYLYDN [Hst2]
Result Unit: %
Percentage intact, CWE + PIC 16h: 80.3459
--
Substance: cyclo(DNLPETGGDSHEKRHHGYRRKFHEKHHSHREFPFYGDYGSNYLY) [cHst1]
Result Unit: %
Percentage intact, CWE + PIC 16h: 74.0107
--
Substance: SHREFPFYGDYGS [mad-Hst1]
Result Unit: %
Percentage intact, CWE + PIC 16h: 88.9151

* * *

# Protocol: Stability in chronic wound extracts (CWE), capillary zone electrophoresis
# Assay type: in vitro ADME, human
# Applied Conditions: 1 mg/ml in PBS mixed 1:1 with CWE (1 mg/ml protein, pool of 5 donors) in PBS, 37°C, 4 h; CZE, UV 200 nm, ratio to imidazole, 0 h = 100%; experiment 1 of 3
Where no end group is shown, it is not given here.
Readout: Percentage intact, CWE 4h (%)

Substance: cyclo(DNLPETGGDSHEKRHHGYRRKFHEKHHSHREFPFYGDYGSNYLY) [cHst1]
Readout: Percentage intact, CWE 4h
Recorded Number: 84.7219
--
Substance: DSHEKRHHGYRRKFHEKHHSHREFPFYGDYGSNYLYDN [Hst1]
Readout: Percentage intact, CWE 4h
Recorded Number: 58.4193
--
Substance: SHREFPFYGDYGS [mad-Hst1]
Readout: Percentage intact, CWE 4h
Recorded Number: 84.5
--
Substance: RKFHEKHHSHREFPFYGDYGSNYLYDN [Hst2]
Readout: Percentage intact, CWE 4h
Recorded Number: 78.5338

* * *

# Protocol: Stability in CWE with protease inhibitor cocktail (PIC), capillary zone electrophoresis
# Format: in vitro ADME, human
# Applied Conditions: 1 mg/ml in PBS mixed 1:1 with CWE (1 mg/ml protein, pool of 5 donors) in PBS containing PIC (final 1:140 v/v), 37°C, 96 h; CZE, ratio to imidazole, 0 h = 100%; experiment 1 of 3
Where no end group is shown, it is not given here.
Quick list: Percentage intact, CWE + PIC 96h per entry.

Substance: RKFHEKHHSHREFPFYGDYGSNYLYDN [Hst2]
Percentage intact, CWE + PIC 96h: 63.8972%
--
Substance: SHREFPFYGDYGS [mad-Hst1]
Percentage intact, CWE + PIC 96h: 76.9035%
--
Substance: cyclo(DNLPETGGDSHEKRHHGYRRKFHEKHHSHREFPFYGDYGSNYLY) [cHst1]
Percentage intact, CWE + PIC 96h: 57.543%
--
Substance: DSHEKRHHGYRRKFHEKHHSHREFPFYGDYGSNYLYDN [Hst1]
Percentage intact, CWE + PIC 96h: 48.0273%

* * *

# Protocol: Stability in CWE with protease inhibitor cocktail (PIC), capillary zone electrophoresis
# Format: in vitro ADME, human
# Applied Conditions: 1 mg/ml in PBS mixed 1:1 with CWE (1 mg/ml protein, pool of 5 donors) in PBS containing PIC (final 1:140 v/v), 37°C, 2 h; CZE, ratio to imidazole, 0 h = 100%; experiment 3 of 3
Where no end group is shown, it is not given here.
Readout: Percentage intact, CWE + PIC 2h (%)

Substance: cyclo(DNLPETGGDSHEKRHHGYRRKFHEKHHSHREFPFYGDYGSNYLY) [cHst1]
Recorded Number: 92.8798
//
Substance: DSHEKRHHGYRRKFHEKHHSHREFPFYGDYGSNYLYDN [Hst1]
Recorded Number: 99.1023
//
Substance: SHREFPFYGDYGS [mad-Hst1]
Recorded Number: 98.9861
//
Substance: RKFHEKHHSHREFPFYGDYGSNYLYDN [Hst2]
Recorded Number: 89.0301

* * *

# Protocol: Stability in chronic wound extracts (CWE), capillary zone electrophoresis
# Format: in vitro ADME, human
# Applied Conditions: 1 mg/ml in PBS mixed 1:1 with CWE (1 mg/ml protein, pool of 5 donors) in PBS, 37°C, 8 h; CZE, UV 200 nm, ratio to imidazole, 0 h = 100%; experiment 2 of 3
Where no end group is shown, it is not given here.

Substance: cyclo(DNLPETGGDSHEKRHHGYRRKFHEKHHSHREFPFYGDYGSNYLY) [cHst1]
Percentage intact, CWE 8h / %: 83.9314

Substance: SHREFPFYGDYGS [mad-Hst1]
Percentage intact, CWE 8h / %: 86.2011

Substance: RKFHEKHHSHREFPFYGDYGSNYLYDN [Hst2]
Percentage intact, CWE 8h / %: 66.6666

Substance: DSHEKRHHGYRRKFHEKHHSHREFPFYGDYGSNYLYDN [Hst1]
Percentage intact, CWE 8h / %: 52.8031

* * *

# Protocol: Stability in CWE with protease inhibitor cocktail (PIC), capillary zone electrophoresis
# Assay type: in vitro ADME, human
# Applied Conditions: 1 mg/ml in PBS mixed 1:1 with CWE (1 mg/ml protein, pool of 5 donors) in PBS containing PIC (final 1:140 v/v), 37°C, 4 h; CZE, ratio to imidazole, 0 h = 100%; experiment 3 of 3
Where no end group is shown, it is not given here.
Overview of reported Percentage intact, CWE + PIC 4h across a group of substances:
Readout: Percentage intact, CWE + PIC 4h (%)

Substance: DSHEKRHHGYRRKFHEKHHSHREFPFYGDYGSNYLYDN [Hst1]
Recorded Number: 84.0062
//
Substance: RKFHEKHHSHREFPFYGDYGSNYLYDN [Hst2]
Recorded Number: 86.7184
//
Substance: SHREFPFYGDYGS [mad-Hst1]
Recorded Number: 98.3062
//
Substance: cyclo(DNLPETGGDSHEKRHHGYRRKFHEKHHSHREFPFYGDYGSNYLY) [cHst1]
Recorded Number: 92.4896

* * *

# Protocol: Dose response of Hst1 and PIC in the presence of CWE
# Type: in vitro ADME, human
# Applied Conditions: human, chronic wound extracts (CWE), with protease inhibitor cocktail (PIC), PIC:CWE 1:280 v/v, Hst1 1 mg/ml; PIC:CWE 1:280 v/v; CWE 1 mg/ml; 37°C, 96 h; CZE, 0 h = 100%; experiment 2 of 3; read-out: Intact Hst1, CWE + PIC 1:280 96h
Where no end group is shown, it is not given here.

Sequence Code: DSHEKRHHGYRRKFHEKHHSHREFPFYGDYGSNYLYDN [Hst1]
Result Unit: %
remaining at 96 h, 1 mg/ml: 41.5

* * *

# Protocol: Stability in chronic wound extracts (CWE), capillary zone electrophoresis
# Assay type: in vitro ADME, human
# Applied Conditions: 1 mg/ml in PBS mixed 1:1 with CWE (1 mg/ml protein, pool of 5 donors) in PBS, 37°C, 8 h; CZE, UV 200 nm, ratio to imidazole, 0 h = 100%; experiment 3 of 3
Where no end group is shown, it is not given here.
Percentage intact, CWE 8h by entry:
Readout: Percentage intact, CWE 8h (%)

Substance: SHREFPFYGDYGS [mad-Hst1]
Readout: Percentage intact, CWE 8h
Recorded Number: 78.6965
//
Substance: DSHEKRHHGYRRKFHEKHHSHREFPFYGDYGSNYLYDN [Hst1]
Readout: Percentage intact, CWE 8h
Recorded Number: 51.366
//
Substance: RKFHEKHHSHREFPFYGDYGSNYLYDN [Hst2]
Readout: Percentage intact, CWE 8h
Recorded Number: 34.5662
//
Substance: cyclo(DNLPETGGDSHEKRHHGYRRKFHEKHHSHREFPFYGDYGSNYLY) [cHst1]
Readout: Percentage intact, CWE 8h
Recorded Number: 78.1579

Reference source for all entries: paper PMC4809600
